Below, each entry is listed with its recorded OD490 values, Mean.
System: L929 cell line
Assay Protocol: Cytotoxicity MTS assay, L929 cell line
Format: cell-based
Assay Setup: L929 cell line, 100μM, first assay

# annotated cases, reported OD490 values, Mean shown
Compound | Assayed Target | OD490 values, Mean
COC(=O)c1[nH]c(C2NC(=S)NC(C)=C2C(=O)c2ccccc2)c(C(=O)OC)c1C (stereo not shown) | L929 cell line | 1.0433
CCOC(=O)c1c(C2NC(=O)NC(C)=C2C(=O)Nc2ccccc2C)[nH]c(C(=O)OC)c1C (stereo not shown) [D2] | L929 cell line | 1.2316
CCOC(=O)c1c(C2NC(=O)NC(C)=C2C(=O)Nc2ccccc2)[nH]c(C(=O)OC)c1C (stereo not shown) | L929 cell line | 0.9201
CCOc1ccccc1C1NC(=S)NC(C)=C1C(=O)Nc1ccc(Cl)cc1 (stereo not shown) | L929 cell line | 0.6738
CCOC(=O)c1[nH]c(C2NC(=O)NC(C)=C2C(=O)Nc2ccccc2C)c(C(=O)OC)c1C (stereo not shown) | L929 cell line | 0.7075

What the record says about CCOC(=O)c1[nH]c(C2NC(=O)NC(C)=C2C(=O)Nc2ccccc2OC)c(C(=O)OC)c1C (stereo not shown) : OD490 values, Mean is 1.1051

What the record says about CCOC(=O)c1[nH]c(C2NC(=S)NC(C)=C2C(=O)OC)c(C(=O)OCC)c1C (stereo not shown) : OD490 values, Mean is 0.9106

What the record says about CCOC(=O)c1[nH]c(C2NC(=O)NC(C)=C2C(=O)Nc2ccc(Cl)cc2)c(C(=O)OCC)c1C (stereo not shown) : OD490 values, Mean is 0.7147

What the record says about CCOC(=O)C1=C(C)NC(=S)NC1c1cccc(O)c1 (stereo not shown) [Monastrol, monastrol, reference compound] : OD490 values, Mean is 1.0251

What the record says about CCOC(=O)c1c(C2NC(=O)NC(C)=C2C(=O)Nc2ccccc2OC)[nH]c(C(=O)OC)c1C (stereo not shown) [D1] : OD490 values, Mean is 1.1038
